Biological target: λB site DNA hairpin duplex
Assay: Biosensor-SPR direct binding of compounds to immobilized λB site DNA hairpin
Conditions: read-out: KD for the λB site
pKd: −log10 of the molar value.
observed property: pKd

>>> result_number("N=C(N)c1ccc(-c2ccc(-c3ccc(C(=N)N)cc3)o2)cc1")
6.28
